# Tested on: MEK1
# Construct: gene MAP2K1
# SETUP CONDITIONS: concentration: 1 μM, replicates: in singlicate; n = 1;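 also: KINOMEscan kinase panel screen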
Measured %Inh, listed per entry for reference.

Completed entries (count: 3):
> print(dat)
                                   compound  data.value
1  NCC(NC(=O)c1cc(-c2cn[nH]c2)c(-c2ccnc3[nH]ccc23)s1)c1ccccc1.O=C(O)C(F)(F)F.O=C(O)C(F)(F)F (stereo not drawn) [GSK1325775]          0%
2  O=c1cc(N2CCOCC2)nc2n(Cc3cccc4ccccc34)ccn12 [GSK2333389]          0%
3  CN1c2ccc(NCc3ccc(F)cc3)cc2-c2c(cnn2C)S1(=O)=O          7%

Then there is this compound:
q: Identify measured %Inh corresponding to c1ccc(-c2n[nH]cc2-c2ccnc3ccccc23)nc1 [GW271431]
a: 0%

====

# Tested on: CDKL5
# SETUP CONDITIONS: concentration: 1 μM, replicates: in singlicate; n = 1
RECORDED ENDPOINT: %Inh (%)
Enter your answer as a number in %; do not include the unit.

> print(dat)
                                   molecule  recorded.endpoint  data.value
1  CN(C1=C(c2ccccc2)C(=O)NC1=O)c1ccccc1 [SB-334860]               %Inh           8
2  COCCNC(=O)c1ccc(-c2cc(C(=O)NC3CC3)cc(F)c2C)cc1 [GW868318]               %Inh          26
3  O=C(c1ccc(-c2cc(-c3c[nH]nc3-c3ccccn3)ccn2)cc1)N1CCOCC1 [GW812171]               %Inh           0

Then there is this molecule:
q: Identify measured %Inh corresponding to `COc1cc2c(cc1OC[C@@H](O)CO)ncc1c3ccc(C#N)cc3[nH]c21`
a: 0

====

# Test system: EGFR
# SETUP CONDITIONS: concentration: 1 μM, replicates: in singlicate; n = 1
RECORDED ENDPOINT: %Inh (%)
Enter your answer as a number in %; do not include the unit.

> print(dat)
                                   compound  recorded.endpoint  data.value
1  O=C1Cc2cc(Nc3nc(NCc4cccc(S(=O)(=O)C(F)(F)F)c4)ncc3C(F)(F)F)ccc2N1               %Inh           0
2      CSc1ccc(-c2cc3ncnc(SCC(=O)O)c3s2)cc1               %Inh          27
3  COc1ccc(COc2cc(-n3cnc4ccccc43)sc2C(N)=O)cc1               %Inh           4
4  Cn1ccc2ncnc(Oc3ccc(NC(=O)Nc4ccncc4)c(Cl)c3)c21               %Inh           0
5  Cc1nnc(-c2ccc3ncc(-c4ccc(S(C)=O)cc4)n3c2)o1 (stereo not drawn)               %Inh           9

q: Give %Inh only, for `O=C(c1ccc(-c2cc(-c3c[nH]nc3-c3ccccn3)ccn2)cc1)N1CCOCC1` , using EGFR data.
a: 4

q: Give %Inh only, for `COc1cc2c(cc1OCCN1CCN(C)CC1)ncc1c3ccc(C#N)cc3[nH]c21` , using EGFR data.
a: 0

q: Give %Inh only, for `N#Cc1c(N2CCOCC2)sc(-c2ccn[nH]2)c1-c1ccc(Cl)cc1` , using EGFR data.
a: 0

q: Give %Inh only, for `O=C(NCCNc1ccnc(Nc2ccc(F)cc2)n1)c1cc2ccccc2s1` , using EGFR data.
a: 23

These entries and their values trace back to paper PMC5540273.
